Readings of EC50 for the listed compounds
measured on: Metabotropic glutamate receptor 4 (Homo sapiens)
assay procedure: Receptor Activity Assay: The disclosed compounds and compositions can be evaluated for their ability to act as a potentiator of metabotropic glutamate receptor activity, in particular mGluR4 activity, by any suitable known methodology known in the art. For example, Chinese Hamster Ovary (CHO) cells transfected with human mGluR4 or HEK cells co-transfected with rat mGuR4 and the G-protein regulated Inwardly Rectifying Potassium channel (GIRK) were plated in clear bottom assay plates for assay in a Hamamatsu FDSS Fluorometric Plate Reader. The cells were loaded with either a Ca2+-sensitive fluorescent dye or the thallium responsive dye and the plates were washed and placed into a suitable kinetic plate reader. For human mGuR4 assays, a fluorescence baseline was established for 3-5 seconds, the disclosed compounds were then added to the cells, and the response in cells was measured. Approximately two and a half minutes later, a concentration of mGuR4 orthosteric agonist (e.g. glutamate or L-AP4) eliciting approximately 20% (EC20) of the maximal agonist response was added to the cells, and the response was measured. Two minutes later, a concentration of mGluR4 agonist (e.g. glutamate or L-AP4) eliciting 80% (EC80) of the maximal agonist response was added to the cells, and the response was measured. For rat mGuR4/GIRK experiments, a baseline was established for approximately five seconds, disclosed compounds were added, and either an EC20 or EC80 concentration of agonist was added approximately two and one half minutes later.
# output: bare number, implied unit nM

Below, each entry is followed by its recorded EC50 result.
| compound | unit abbrev | number |
| --- | --- | --- |
| c1cnc2c(Nc3ccc4c(O[C@H]5CCOC5)nccc4c3)n[nH]c2c1 | nM | 37.6 |
| Fc1cnc2c(Nc3ccc4c(O[C@H]5CCOC5)nccc4c3)n[nH]c2c1 | nM | 82.3 |
| c1cnc2c(Nc3ccc4c(OCCN5CCOCC5)nccc4c3)n[nH]c2c1 | nM | 41.2 |
| c1cnc2[nH]nc(Nc3ccc4c(O[C@@H]5CCOC5)nccc4c3)c2c1 | nM | 64 |
| c1cnc2[nH]nc(Nc3ccc4c(OCC5CCOC5)nccc4c3)c2c1 (stereo not drawn) | nM | 54.3 |
| C[C@H]1OCC[C@H]1Oc1nccc2cc(Nc3n[nH]c4ncccc34)ccc12 | nM | 154 |
| CO[C@H](C)COc1nccc2cc(Nc3n[nH]c4ncccc34)ccc12 | nM | 77.1 |
| c1cnc2c(Nc3ccc4c(OCC5COCCO5)nccc4c3)n[nH]c2c1 (stereo not drawn) | nM | 12.6 |

Moving on to the next compound.
Suppose we examine the compound c1cnc2[nH]nc(Nc3ccc4c(OCCN5CCOCC5)nccc4c3)c2c1 ; what EC50 value has been reported?
148

* * *

Entries annotated with measured EC50
measured on: Metabotropic glutamate receptor 4 (Homo sapiens, UniProt Q14833)
Sequence (Q14833 whole entry): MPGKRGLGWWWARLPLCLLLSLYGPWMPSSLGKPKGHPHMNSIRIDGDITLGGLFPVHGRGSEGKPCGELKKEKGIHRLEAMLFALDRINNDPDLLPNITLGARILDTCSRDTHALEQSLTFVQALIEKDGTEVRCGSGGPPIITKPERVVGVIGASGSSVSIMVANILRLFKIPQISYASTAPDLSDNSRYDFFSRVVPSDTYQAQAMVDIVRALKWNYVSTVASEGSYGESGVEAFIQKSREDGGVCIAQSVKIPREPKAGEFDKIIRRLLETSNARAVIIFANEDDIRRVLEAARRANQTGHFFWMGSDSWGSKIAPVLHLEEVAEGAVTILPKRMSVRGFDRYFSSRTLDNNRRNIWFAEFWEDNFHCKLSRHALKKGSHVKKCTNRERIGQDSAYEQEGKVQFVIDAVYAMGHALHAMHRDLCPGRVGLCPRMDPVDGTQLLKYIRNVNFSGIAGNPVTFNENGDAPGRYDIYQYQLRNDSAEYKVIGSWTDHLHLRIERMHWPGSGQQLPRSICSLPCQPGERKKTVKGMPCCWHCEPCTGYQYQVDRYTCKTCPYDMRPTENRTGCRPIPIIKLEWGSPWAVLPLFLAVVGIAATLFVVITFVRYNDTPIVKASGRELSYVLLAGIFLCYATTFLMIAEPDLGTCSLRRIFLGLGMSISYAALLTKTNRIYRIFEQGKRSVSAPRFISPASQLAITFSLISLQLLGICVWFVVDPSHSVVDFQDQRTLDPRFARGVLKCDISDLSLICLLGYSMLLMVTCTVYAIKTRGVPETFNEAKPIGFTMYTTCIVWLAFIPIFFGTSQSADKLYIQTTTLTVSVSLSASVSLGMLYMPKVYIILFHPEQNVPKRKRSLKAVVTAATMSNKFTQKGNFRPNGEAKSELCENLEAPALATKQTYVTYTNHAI
assay procedure: Receptor Activity Assay: The disclosed compounds and compositions can be evaluated for their ability to act as a potentiator of metabotropic glutamate receptor activity, in particular mGluR4 activity, by any suitable known methodology known in the art. For example, Chinese Hamster Ovary (CHO) cells transfected with human mGluR4 or HEK cells co-transfected with rat mGuR4 and the G-protein regulated Inwardly Rectifying Potassium channel (GIRK) were plated in clear bottom assay plates for assay in a Hamamatsu FDSS Fluorometric Plate Reader. The cells were loaded with either a Ca2+-sensitive fluorescent dye or the thallium responsive dye and the plates were washed and placed into a suitable kinetic plate reader. For human mGuR4 assays, a fluorescence baseline was established for 3-5 seconds, the disclosed compounds were then added to the cells, and the response in cells was measured. Approximately two and a half minutes later, a concentration of mGuR4 orthosteric agonist (e.g. glutamate or L-AP4) eliciting approximately 20% (EC20) of the maximal agonist response was added to the cells, and the response was measured. Two minutes later, a concentration of mGluR4 agonist (e.g. glutamate or L-AP4) eliciting 80% (EC80) of the maximal agonist response was added to the cells, and the response was measured. For rat mGuR4/GIRK experiments, a baseline was established for approximately five seconds, disclosed compounds were added, and either an EC20 or EC80 concentration of agonist was added approximately two and one half minutes later.
Give me the value, and tack the unit on after it.

These solved cases illustrate the format of a correct answer.
| compound | EC50 |
| --- | --- |
| Fc1cnc2[nH]nc(Nc3ccc4c(OC5CCOCC5)nccc4c3)c2c1 | 118 nM |
| c1cnc2c(Nc3ccc4c(OCC5CCCOC5)nccc4c3)n[nH]c2c1 (centres undefined) | 15.7 nM |
| C[C@@H]1C[C@H](Oc2nccc3cc(Nc4n[nH]c5ncccc45)ccc23)CO1 | 152 nM |
| c1cnc2c(Nc3ccc4c(OCC5CCOC5)nccc4c3)n[nH]c2c1 (centres undefined) | 12 nM |
| c1cnc2c(Nc3ccc4c(O[C@H]5CCCOC5)nccc4c3)n[nH]c2c1 | 27.3 nM |
| C[C@H]1OCC[C@H]1Oc1nccc2cc(Nc3n[nH]c4cccnc34)ccc12 | 55.9 nM |

Need EC50 of COCCOc1nccc2cc(Nc3n[nH]c4cc(F)cnc34)ccc12 , thanks.
69 nM

Check CCOCCOc1nccc2cc(Nc3n[nH]c4cccnc34)ccc12 too.
22.3 nM

Continue with c1cnc2[nH]nc(Nc3ccc4c(OCC5COCCO5)nccc4c3)c2c1 (centres undefined)
121 nM

Please do the same for c1cc2cc(Nc3n[nH]c4nccnc34)ccc2c(OCC2CCOC2)n1 (centres undefined) as well.
10.4 nM

Now give it for c1cnc2c(Nc3ccc4c(OC5CCOCC5)nccc4c3)n[nH]c2c1 too.
12.6 nM

Moving on to the next compound: c1cnc2c(Nc3ccc4c(O[C@@H]5CCCOC5)nccc4c3)n[nH]c2c1
31.9 nM

Okay, and c1cc2cc(Nc3n[nH]c4nccnc34)ccc2c(OCC2COCCO2)n1 (centres undefined) ?
28.5 nM

Can you handle CCOCCOc1nccc2cc(Nc3n[nH]c4nccnc34)ccc12 next?
21.5 nM

How about this compound: c1cnc2c(Nc3ccc4c(O[C@@H]5CCOC5)nccc4c3)n[nH]c2c1
36.1 nM

* * *

measured on: Metabotropic glutamate receptor 4 (Homo sapiens, UniProt Q14833)
assay procedure: Receptor Activity Assay: The disclosed compounds and compositions can be evaluated for their ability to act as a potentiator of metabotropic glutamate receptor activity, in particular mGluR4 activity, by any suitable known methodology known in the art. For example, Chinese Hamster Ovary (CHO) cells transfected with human mGluR4 or HEK cells co-transfected with rat mGuR4 and the G-protein regulated Inwardly Rectifying Potassium channel (GIRK) were plated in clear bottom assay plates for assay in a Hamamatsu FDSS Fluorometric Plate Reader. The cells were loaded with either a Ca2+-sensitive fluorescent dye or the thallium responsive dye and the plates were washed and placed into a suitable kinetic plate reader. For human mGuR4 assays, a fluorescence baseline was established for 3-5 seconds, the disclosed compounds were then added to the cells, and the response in cells was measured. Approximately two and a half minutes later, a concentration of mGuR4 orthosteric agonist (e.g. glutamate or L-AP4) eliciting approximately 20% (EC20) of the maximal agonist response was added to the cells, and the response was measured. Two minutes later, a concentration of mGluR4 agonist (e.g. glutamate or L-AP4) eliciting 80% (EC80) of the maximal agonist response was added to the cells, and the response was measured. For rat mGuR4/GIRK experiments, a baseline was established for approximately five seconds, disclosed compounds were added, and either an EC20 or EC80 concentration of agonist was added approximately two and one half minutes later.
# Lookup of reported pEC50 keyed by entry
Just the number, please; pEC50 means minus log10 of the concentration in mol/L.

Illustrative cases are given below, each with its answer.
| compound | pEC50 |
| --- | --- |
| COCCOc1nccc2cc(Nc3n[nH]c4ccccc34)ccc12 | 7.11 |
| c1cc2cc(Nc3n[nH]c4nccnc34)ccc2c(O[C@H]2CCOC2)n1 | 7.66 |
| c1cnc2c(Nc3ccc4c(OCC5CCOCC5)nccc4c3)n[nH]c2c1 | 7.94 |
| Fc1cnc2c(Nc3ccc4c(OCC5COCCO5)nccc4c3)n[nH]c2c1 (centres undefined) | 7.44 |

We next turn to a different compound, shown below.
Item under review: c1cnc2[nH]nc(Nc3ccc4c(OCC5CCOCC5)nccc4c3)c2c1 . Reported pEC50?
7.34

* * *

measured on: Metabotropic glutamate receptor 4 (Homo sapiens)
assay procedure: Receptor Activity Assay: The disclosed compounds and compositions can be evaluated for their ability to act as a potentiator of metabotropic glutamate receptor activity, in particular mGluR4 activity, by any suitable known methodology known in the art. For example, Chinese Hamster Ovary (CHO) cells transfected with human mGluR4 or HEK cells co-transfected with rat mGuR4 and the G-protein regulated Inwardly Rectifying Potassium channel (GIRK) were plated in clear bottom assay plates for assay in a Hamamatsu FDSS Fluorometric Plate Reader. The cells were loaded with either a Ca2+-sensitive fluorescent dye or the thallium responsive dye and the plates were washed and placed into a suitable kinetic plate reader. For human mGuR4 assays, a fluorescence baseline was established for 3-5 seconds, the disclosed compounds were then added to the cells, and the response in cells was measured. Approximately two and a half minutes later, a concentration of mGuR4 orthosteric agonist (e.g. glutamate or L-AP4) eliciting approximately 20% (EC20) of the maximal agonist response was added to the cells, and the response was measured. Two minutes later, a concentration of mGluR4 agonist (e.g. glutamate or L-AP4) eliciting 80% (EC80) of the maximal agonist response was added to the cells, and the response was measured. For rat mGuR4/GIRK experiments, a baseline was established for approximately five seconds, disclosed compounds were added, and either an EC20 or EC80 concentration of agonist was added approximately two and one half minutes later.
Listing of entries alongside the reported EC50.
State the answer as a number, implicitly in µM.

| molecule | EC50 (µM) |
| --- | --- |
| c1cnc2[nH]nc(Nc3ccc4c(OCC5CCCCO5)nccc4c3)c2c1 (centres undefined) | 0.0752 |

// query EC50 value for entry COCCOc1nccc2cc(Nc3n[nH]c4cccnc34)ccc12
0.0199

Quick one: COCCOc1nccc2cc(Nc3n[nH]c4nccnc34)ccc12
0.0352

What about CCOCCOc1nccc2cc(Nc3n[nH]c4ncccc34)ccc12 ?
0.0484

And C[C@H]1C[C@H](Oc2nccc3cc(Nc4n[nH]c5ncccc45)ccc23)CO1 ?
0.0707

Another molecule: COCCOc1nccc2cc(Nc3n[nH]c4ncccc34)ccc12
0.0515

Subsequent entry: c1cc2cc(Nc3n[nH]c4nccnc34)ccc2c(O[C@@H]2CCOC2)n1
0.0436

What do you have for C[C@@H]1C[C@H](Oc2nccc3cc(Nc4n[nH]c5cccnc45)ccc23)CO1 ?
0.0483

Can you check C[C@H]1C[C@H](Oc2nccc3cc(Nc4n[nH]c5cccnc45)ccc23)CO1 next?
0.0269
